Each recorded value in this set is attributed to patent US20240158418A1.

- tested on: EGFR L858R-T790M (Homo sapiens, UniProt P00533, L858R/T790M)
- Construct: NCI-H1975 (harboring EGFR heterozygous L858R-T790M mutations); host or cells: NCI-H1975
- Sequence (P00533 25-1210 T790M/L858R): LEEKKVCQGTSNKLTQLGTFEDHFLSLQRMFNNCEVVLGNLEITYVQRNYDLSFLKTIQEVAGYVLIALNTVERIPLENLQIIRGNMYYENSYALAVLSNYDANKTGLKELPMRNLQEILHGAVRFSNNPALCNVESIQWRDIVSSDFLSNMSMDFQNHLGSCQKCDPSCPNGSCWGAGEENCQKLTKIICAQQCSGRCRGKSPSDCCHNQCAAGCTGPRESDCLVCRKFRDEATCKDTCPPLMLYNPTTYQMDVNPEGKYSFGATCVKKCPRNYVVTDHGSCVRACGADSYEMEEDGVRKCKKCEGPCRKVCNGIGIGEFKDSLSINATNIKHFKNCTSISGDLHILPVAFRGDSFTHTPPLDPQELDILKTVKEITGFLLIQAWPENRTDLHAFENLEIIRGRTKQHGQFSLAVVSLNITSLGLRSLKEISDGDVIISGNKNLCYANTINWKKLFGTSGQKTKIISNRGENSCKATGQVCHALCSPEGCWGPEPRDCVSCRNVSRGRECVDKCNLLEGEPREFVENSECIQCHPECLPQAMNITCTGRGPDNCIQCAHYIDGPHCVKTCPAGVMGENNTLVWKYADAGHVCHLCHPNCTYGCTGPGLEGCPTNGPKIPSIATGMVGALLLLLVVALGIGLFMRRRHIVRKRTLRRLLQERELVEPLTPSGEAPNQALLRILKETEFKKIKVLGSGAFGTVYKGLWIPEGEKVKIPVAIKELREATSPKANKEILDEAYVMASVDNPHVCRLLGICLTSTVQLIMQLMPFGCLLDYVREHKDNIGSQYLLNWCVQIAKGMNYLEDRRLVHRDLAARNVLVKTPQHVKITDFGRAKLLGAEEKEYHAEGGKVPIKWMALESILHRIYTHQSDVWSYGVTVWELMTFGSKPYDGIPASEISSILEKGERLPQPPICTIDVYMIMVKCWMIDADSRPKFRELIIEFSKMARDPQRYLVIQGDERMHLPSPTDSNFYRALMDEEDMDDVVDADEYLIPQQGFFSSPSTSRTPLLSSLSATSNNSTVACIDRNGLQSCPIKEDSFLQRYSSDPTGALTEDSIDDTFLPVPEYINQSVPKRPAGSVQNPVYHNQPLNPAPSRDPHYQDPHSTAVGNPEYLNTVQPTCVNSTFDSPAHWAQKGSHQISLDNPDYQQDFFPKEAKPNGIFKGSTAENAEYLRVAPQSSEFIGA
- assay notes: EGFR degradation, Total EGFR (L858R-specific) HTRF, NCI-H1975
- Format: cell-based
- applied conditions: Table 9B; NCI-H1975 cells, 6 hours, Total EGFR HTRF; read-out: H1975 EGFR DC50
- Description: NCI-H1975 (harboring EGFR heterozygous L858R-T790M mutations) and NCI-H3255 (harboring EGFR heterozygous L858R mutation) were purchased from ATCC and NCI, respectively. […] Degradation of EGFR protein containing L858R mutation or wild-type was determined based on quantification of FRET signal using a Total EGFR (L858R-specific or pan-EGFR detecting) HTRF assay kit. Phospho-EGFR (pEGFR) inhibition was determined based on quantification of FRET signal using a pY1068 EGFR HTRF assay kit. […]
Items are presented alongside their recorded DC50.

## Input For O=C1CCC(Nc2ccc(N3CCC(O)(CC(=O)N4CCC(NC(=O)c5ccc(C#Cc6cc(F)c7c(c6)C(=O)N(C(C(=O)Nc6nccs6)c6ncn8c6CCC8)C7)cn5)CC4)CC3)c(F)c2)C(=O)N1 (centres unmarked) , what is its reported DC50?
## Output < 50 nM

## Input Try this compound too: O=C1CCC(Nc2ccc(N3CCC(O)(CC(=O)N4CCC5(CC4)CN(c4ccc(-c6cc(F)c7c(c6)C(=O)N(C(C(=O)Nc6nccs6)c6ncn8c6CCC8)C7)cc4)C5)CC3)c(Cl)c2)C(=O)N1 (single isomer, unassigned; isomer 1)
## Output < 50 nM

## Input Try this compound too: O=C1CCC(Nc2cc(F)c(N3CCC(O)(CC(=O)N4CC5(C4)CN(c4ccc(-c6cc(F)c7c(c6)C(=O)N(C(C(=O)Nc6nccs6)c6ncn8c6CCC8)C7)cc4)C5)CC3)c(F)c2)C(=O)N1 (centres unmarked) [Compound 103]
## Output < 50 nM

## Input Try this compound too: O=C1CC[C@@H](Nc2ccc(C3CCN(C(=O)CCCN4CCN(c5ccc(-c6cc(F)c7c(c6)C(=O)N(C(C(=O)Nc6nccs6)c6ncn8c6CCC8)C7)cc5)CC4)CC3)cc2)C(=O)N1 (stereo in doubt)
## Output < 50 nM

## Input Try this compound too: O=C1CC[C@H](Nc2ccc(N3CCC(O)(C(=O)N4CC5(C4)CN(c4ccc(-c6cc(F)c7c(c6)C(=O)N(C(C(=O)Nc6nccs6)c6ncn8c6CCC8)C7)cc4)C5)CC3)c(F)c2)C(=O)N1 (single isomer, unassigned; isomer 1)
## Output < 50 nM

---

- tested on: EGFR L858R-T790M (Homo sapiens, UniProt P00533, L858R/T790M)
- Construct: NCI-H1975 (harboring EGFR heterozygous L858R-T790M mutations); host or cells: NCI-H1975
- assay notes: EGFR degradation, Total EGFR (L858R-specific) HTRF, NCI-H1975
- Type: cell-based
- applied conditions: Table 9B; NCI-H1975 cells, 6 hours, Total EGFR HTRF; read-out: H1975 EGFR DC50
Items are presented alongside their recorded DC50.

O=C1CCC(Nc2ccc(N3CCCC(O)(CC(=O)N4CC5(C4)CN(c4ccc(-c6cc(F)c7c(c6)C(=O)N(C(C(=O)Nc6nccs6)c6ncn8c6CCC8)C7)cc4)C5)CC3)c(F)c2)C(=O)N1 (single isomer, unassigned; isomer b1) [Compound 166] | 50 to 150 nM

# evaluate next
## Input For O=C1CCC(Nc2ccc(N3CCC(O)(CC(=O)N4CC5(C4)CN(c4ccc(-c6cc(F)c7c(c6)C(=O)N(C(C(=O)Nc6nccs6)c6ncn8c6CCC8)C7)cc4)C5)CC3)c(Cl)c2)C(=O)N1 (centres unmarked) [Compound 117] , what is its reported DC50?
## Output < 50 nM

---

- tested on: EGFR L858R-T790M (Homo sapiens, UniProt P00533, L858R/T790M)
- Construct: NCI-H1975 (harboring EGFR heterozygous L858R-T790M mutations); host or cells: NCI-H1975
- assay notes: EGFR degradation, Total EGFR (L858R-specific) HTRF, NCI-H1975
- Assay type: cell-based
- applied conditions: Table 9A; NCI-H1975 cells, 6 hours, Total EGFR HTRF; read-out: H1975 EGFR DC50
readout label: DC50

Use these answered entries as a reference point.
O=C1CCC(Nc2ccc(C3CCN(C(=O)CN4CCC(c5ccc(-c6cc(F)c7c(c6)C(=O)N(C(C(=O)Nc6nccs6)c6ncn8c6CCC8)C7)cc5)CC4)CC3)cc2)C(=O)N1 (centres unmarked) | < 50 nM
O=C1CC[C@H](Nc2ccc(C3CCN(CC(=O)N4CCC(Oc5ccc(-c6cc(F)c7c(c6)C(=O)N(C(C(=O)Nc6nccs6)c6ncn8c6CCC8)C7)cc5)CC4)CC3)c(F)c2)C(=O)N1 (some centres unmarked) | 50 to 150 nM
Cn1nc(N2CCC(=O)NC2=O)c2ccc([C@H]3CCN(CC(=O)N4CC5(C4)CN(c4ccc(-c6cc(F)c7c(c6)C(=O)N(C(C(=O)Nc6nccs6)c6ncn8c6CCC8)C7)cc4)C5)CC3(F)F)cc21 (some centres unmarked) | < 50 nM
Cn1nc(N2CCC(=O)NC2=O)c2ccc(C3CCN(CC(=O)N4CC5(C4)CN(c4ccc(-c6cc(F)c7c(c6)C(=O)N(C(C(=O)Nc6ccccn6)c6ncn8c6CCC8)C7)cc4)C5)CC3)cc21 (centres unmarked) | < 50 nM

# evaluate next
## Input For O=C1CCC(Nc2ccc(N3CCC(O)(CC(=O)N4CCN(c5ccc(-c6cc(F)c7c(c6)C(=O)N(C(C(=O)Nc6nccs6)c6ncn8c6CCC8)C7)cc5)CC4)CC3)c(C(F)(F)F)c2)C(=O)N1 (centres unmarked) , what is its reported DC50?
## Output < 50 nM

---

- tested on: EGFR L858R-T790M (Homo sapiens, UniProt P00533, L858R/T790M)
- Construct: NCI-H1975 (harboring EGFR heterozygous L858R-T790M mutations); host or cells: NCI-H1975
- assay notes: EGFR degradation, Total EGFR (L858R-specific) HTRF, NCI-H1975
- Type: cell-based
- applied conditions: Table 9A; NCI-H1975 cells, 6 hours, Total EGFR HTRF; read-out: H1975 EGFR DC50
readout label: DC50

O=C1CCC(Nc2ccc(C3CCN(CC(=O)N4CCN(c5ccc(-c6cc(Cl)c7cn(C(C(=O)Nc8nccs8)c8ncn9c8CCC9)nc7c6Cl)cc5)CC4)CC3)cc2)C(=O)N1 (racemic) [Compound 61] | 50 to 150 nM
O=C1CC[C@H](Nc2ccc(C3CCN(CC(=O)N4CC[C@@H](Oc5ccc(-c6cc(F)c7c(c6)C(=O)N(C(C(=O)Nc6nccs6)c6ncn8c6CCC8)C7)cc5)C4)CC3)cc2)C(=O)N1 (stereo partly shown) [Compound 41] | < 50 nM
O=C1CC[C@H](Nc2ccc(C3CCN(CC(=O)N4CC5(C4)CN(c4ccc(-c6cc(F)c7c(c6)C(=O)N(C(C(=O)Nc6ccccn6)c6ncn8c6CCC8)C7)cc4)C5)CC3)c(F)c2)C(=O)N1 (stereo partly shown) [Compound 53] | 50 to 150 nM
O=C1CC[C@@H](Nc2ccc(C3CCN(CC(=O)N4CCC(c5ccc(-c6cc(F)c7c(c6)C(=O)N(C(C(=O)Nc6nccs6)c6ncn8c6CCC8)C7)cc5)CC4)CC3)cc2)C(=O)N1 (stereo partly shown) [Compound 23] | < 50 nM
O=C1CC[C@H](Nc2ccc(C3CCN(CC(=O)N4CCC(Oc5ccc(-c6cc(F)c7c(c6)C(=O)N(C(C(=O)Nc6nccs6)c6ncn8c6CCC8)C7)cc5)CC4)CC3)cc2)C(=O)N1 (stereo partly shown) [Compound 32] | < 50 nM
O=C1CCC(Nc2ccc(C3CCN(CC(=O)N4CCN(c5ccc(-c6cc(F)c7cn(C(C(=O)Nc8nccs8)c8ncn9c8CCC9)nc7c6)cn5)CC4)CC3)nc2)C(=O)N1 (stereo not shown) [Compound 66] | < 50 nM
O=C1CCN(c2ccc(N3CCC(O)(CC(=O)N4CC5(C4)CN(c4ccc(-c6cc(F)c7c(c6)C(=O)N(C(C(=O)Nc6nccs6)c6ncn8c6CCC8)C7)cc4)C5)CC3)c(Cl)c2)C(=O)N1 (stereo not shown) [Compound 8] | < 50 nM
O=C1CCC(Nc2ccc(C3CCN(CC(=O)N4CCN(c5ccc(-c6cc(F)c7c(c6)C(=O)N(C(C(=O)Nc6ccccn6)c6ncn8c6CCC8)C7)cc5)CC4)CC3)cc2)C(=O)N1 (stereo not shown) [Compound 19] | 50 to 150 nM
O=C1CC[C@H](Nc2ccc(C3CCN(CC(=O)N4CCC(n5cc(-c6cc(F)c7c(c6)C(=O)N(C(C(=O)Nc6nccs6)c6ncn8c6CCC8)C7)cn5)CC4)CC3)cc2)C(=O)N1 (stereo partly shown) [Compound 28] | < 50 nM

# evaluate next
## Input Please state recorded DC50 (tested on EGFR L858R-T790M (Homo sapiens, UniProt P00533, L858R/T790M)) of O=C1CCC(Nc2ccc(N3CCC(O)(CC(=O)N4CC5(C4)CN(c4ccc(-c6cc(F)c7c(c6)C(=O)N(C(C(=O)Nc6nccs6)c6ncn8c6CCC8)C7)cc4)C5)CC3)c(Cl)c2)C(=O)N1 (single isomer, unassigned; isomer 1) [Compound 7]
## Output < 50 nM
